Known Ki of a selection of molecules
Target: human GABAA α5β2γ1 receptor (Homo sapiens (Human), UniProt P31644+Q8N1C3)
Experiment: Radioligand binding assay for γ1-containing GABAA subtypes, [3H]RO7239181 competition (α5β2γ1)
Answer format: value, then unit.

Some solved entries appear below for comparison.
CC1CN(C(=O)c2nc3n(n2)-c2ccc(Cl)c(Cl)c2C(c2ncccc2F)=N[C@H]3C)C1 = 5.5 nM
C[C@@H]1N=C(c2c(F)cccc2F)c2c(ccc(Cl)c2Cl)-n2nc(C(=O)NC3COC3)nc21 = 1.15 nM
COC1CN(C(=O)c2nc3n(n2)-c2ccc(Cl)c(Cl)c2C(c2ncccc2F)=NC3)C1 = 3.7 nM
C[C@@H]1N=C(c2ncccc2F)c2c(ccc(Cl)c2Cl)-n2nc(C(=O)N3CC[C@H](F)C3)nc21 = 7.8 nM

Query: Item under review: C[C@@H]1N=C(c2ncccc2F)c2c(ccc(C(F)(F)F)c2Cl)-n2nc(C(=O)N3CC4(COC4)C3)nc21 . Reported Ki?
Response: 9.85 nM

---

Target: human GABAA α5β2γ1 receptor (Homo sapiens (Human), UniProt P31644+Q8N1C3)
Test: Radioligand binding assay for γ1-containing GABAA subtypes, [3H]RO7239181 competition (α5β2γ1)
recordedEndpoint: log10 Ki (log10 of the value in nM)
# values: log10(Ki), units nM

Some solved entries appear below for comparison.
O=C(c1nc2n(n1)-c1ccc(Cl)c(Cl)c1C(c1c(F)cccc1F)=NC2)N1CC(O)C1 = -0.35
C[C@@H]1N=C(c2ncccc2F)c2c(ccc(C(F)(F)F)c2Cl)-n2c(CO)cnc21 = 1.38
C[C@@H]1N=C(c2c(F)cccc2F)c2c(ccc(Cl)c2Cl)-n2nc(C(=O)N3CC4(CCOCC4)C3)nc21 = 0.52
COC1CN(C(=O)Nc2nc3n(n2)-c2ccc(Cl)c(Cl)c2C(c2c(F)cccc2F)=N[C@H]3C)C1 = 0.17
C[C@@H]1N=C(c2c(F)cccc2F)c2c(ccc(Cl)c2Cl)-n2nc(C(=O)N3CC(OC(F)F)C3)nc21 = 0.12
C[C@H](O)CNC(=O)c1nc2n(n1)-c1ccc(Cl)c(Cl)c1C(c1c(F)cccc1F)=N[C@H]2C = 0.12
C[C@@H]1N=C(c2c(F)cccc2F)c2c(ccc(Cl)c2Cl)-n2nc(S(C)(=O)=O)nc21 = 0.55
C[C@@H]1N=C(c2c(F)cccc2F)c2c(ccc(Cl)c2Cl)-n2nc(S(N)(=O)=O)nc21 = -0.11
C[C@@H]1N=C(c2ncccc2F)c2c(ccc(C(F)(F)F)c2Cl)-n2cc(C(=O)N3CC(C)(O)C3)nc21 = 1.28
C[C@@H]1N=C(c2c(F)cccc2F)c2c(ccc(C(F)(F)F)c2Cl)-n2ccnc21 = 0.12

Query: Item under review: C[C@@H]1N=C(c2c(F)cccc2F)c2c(ccc(Cl)c2Cl)-n2cc(C(=O)N3CCC3)nc21 . Reported log10 Ki?
Response: 0.03

Query: Item under review: C[C@@H]1N=C(c2ncccc2F)c2c(ccc(C(F)(F)F)c2Cl)-n2nc(C(=O)N3CCS(=O)(=O)CC3)nc21 . Reported log10 Ki?
Response: 0.80

Query: Item under review: C[C@@H]1N=C(c2c(F)cccc2F)c2c(ccc(Cl)c2Cl)-n2ncnc21 . Reported log10 Ki?
Response: -0.40

Query: Item under review: Cc1nc2n(n1)-c1ccc(C(F)(F)F)c(Cl)c1C(c1ncccc1F)=N[C@H]2C . Reported log10 Ki?
Response: 0.74

Query: Item under review: Cc1c(C(=O)NC[C@@H](C)O)nc2n1-c1ccc(C(F)(F)F)c(Cl)c1C(c1ncccc1F)=N[C@H]2C . Reported log10 Ki?
Response: 1.13

Query: Item under review: C[C@@H]1N=C(c2c(F)cccc2F)c2c(ccc(Cl)c2Cl)-n2nc(C(=O)NCC(F)F)nc21 . Reported log10 Ki?
Response: 0.10

Query: Item under review: CC1CN(C(=O)c2cn3c(n2)[C@H](C)N=C(c2ncccc2F)c2c-3ccc(C(F)(F)F)c2Cl)C1 . Reported log10 Ki?
Response: 1.31

Query: Item under review: Fc1cccc(F)c1C1=NCc2nc(C(F)F)nn2-c2ccc(Cl)c(Cl)c21 . Reported log10 Ki?
Response: -0.16
